measuredOn: T1, biotinylated human VWF cysteine knot (CK) domain construct (human, biotin on the in vitro biotinylation tag (residue not stated); one N-glycan)
T1 construct: Disulfide-linked homodimer; also called biotinylated human VWF CK domain; human VWF CK domain construct
T1 chain: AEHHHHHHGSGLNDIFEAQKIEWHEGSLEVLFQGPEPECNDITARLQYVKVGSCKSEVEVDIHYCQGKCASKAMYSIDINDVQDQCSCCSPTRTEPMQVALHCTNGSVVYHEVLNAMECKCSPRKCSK
procedureText: SPR, scFv captured on anti-SV5, pH 7.4
reportedMetric: binding result

[[record]]
binder = "Lib1_P1_D1_scFv (scFv, not shown: small tags and cut ends) scFv: QVQLVQSGAEVKKPGASVKVSCKVSGDTFTDRYIHWVRQAPGKGLEWMGGINTIFGTAIYAQKFQGRVTMTEDTSTDTAYMELSSLKSEDTAVYYCAREGATVSTNFDYWGQGTLVTVSSSGGSTITSYNVYYTKLSSSGTDIQMTQSPSSVSASVGDRVTITCRASQDIRKSLAWYQQKPGKAPKLLIYDISNRPSGVPSRFSGSGSGTDFTLTISSLQPEDFANYYCQQGYSAPYGFGGGTKVEIK"
value = "binds"

[[record]]
binder = "Lib1_P1_A5_scFv (scFv, not shown: small tags and cut ends) scFv: QVQLVQSGAEVKKPGASVKVSCKVSGDTLSNYAIHWVRQAPGKGLEWMGGINPNAGTTIYAQKFQGRVTMTEDTSTDTAYMELSSLKSEDTAVYYCARDSSSWCPVGYYYYYMDVWGKGTTVTVSSSGGSTITSYNVYYTKLSSSGTDIQMTQSPSSVSASVGDRVTITCRASQSIGDFLAWYQQKPGKAPKLLIYDASHLQTGVPSRFSGSGSGTDFTLTISSLQPEDFANYYCQQTSTIPPTFGGGTKVEIK"
value = "binds"

